experiment: small-molecule microarray binders of probe aDKK1, primary screen, biochemical, biotinylated probe, 635/667 nm fluorescence (AID 1099); settings: higher = more signal;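 also: score merges 667nm spot fluorescence with signal to noise across triplicate slides; reference of the scale not given here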
Condition met means recorded composite z-score is -0.2 or above; Condition not met means it is below -0.2.

// query Is the recorded value of composite z-score equal to or greater than -0.2 for this molecule? COC(=O)[C@H](CCSC)NC(=O)CC=C[C@@H](C)CO
// result Condition not met

// query Is the recorded value of composite z-score equal to or greater than -0.2 for this molecule? CCOC(=O)[C@H](Cc1ccccc1)NC(=O)CCC1CC(OC(=O)NCc2cccc3ccccc23)CC2(CCCC(COC(=O)NCC3CCCCC3)O2)O1 (some centres not stated)
// result Condition not met

// query Is the recorded value of composite z-score equal to or greater than -0.2 for this molecule? CC(C)(C)N1C(=O)[C@H]2[C@@H]3C(=CC[C@H]2C1=O)C(=O)[C@H]1O[C@H]1[C@H]3O
// result Condition not met

// query Is the recorded value of composite z-score equal to or greater than -0.2 for this molecule? CC(=O)OC[C@H]1O[C@@H](ON=C(C)C)[C@H](OC(C)=O)[C@@H](OC(C)=O)[C@@H]1OC(C)=O
// result Condition met

// query Is the recorded value of composite z-score equal to or greater than -0.2 for this molecule? COC(=O)[C@H](C)NC(=O)CCC1CC(OC(=O)NCc2ccc3c(c2)OCO3)CC2(CCCC(COC(=O)NCCc3ccc(Cl)cc3)O2)O1 (some centres not stated)
// result Condition met

// query Is the recorded value of composite z-score equal to or greater than -0.2 for this molecule? COc1ccc2c(c1)O[C@@H](c1cccc(C(F)(F)F)c1)[C@H](O)C2=O
// result Condition met

// query Is the recorded value of composite z-score equal to or greater than -0.2 for this molecule? COC(=O)[C@@H]1CC[C@H](C)[C@@H](c2ccc(C)cc2)N1C(=O)c1ccc(C=NOC[C@H]2O[C@H](c3ccccc3)C=C[C@@H]2Oc2ccc(OC)cc2)cc1
// result Condition met

----------
assay: small-molecule microarray binders of probe aNog, primary screen, biochemical, biotinylated probe, 635/667 nm fluorescence (AID 1115); details: higher = more signal;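 also: probe is biotinylated aNog protein used at 0.15 µg/mL for 1 h at 4 C; z-score combines 667 nm fluorescence of each spot with its signal to noise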
Classes (composite z-score): 0 (below -0.2), 1 (-0.2 to below 0.05), 2 (0.05 or more)

// query Could you place C[C@@H](c1ccccc1)N1C(=O)[C@H]2[C@H]3[C@H](O)[C@H](O)CC(=NOCc4ccccc4)[C@@H]3CC[C@H]2C1=O in its proper category? Many thanks.
// result 2

// query Could you place C=CC[C@@H]1C=C[C@H](ON=C2C[C@@H](O)[C@@H](O)[C@@H]3[C@@H]4C(=O)N(CC)C(=O)[C@@H]4CC[C@@H]23)[C@@H](CO)O1 in its proper category? Many thanks.
// result 2

// query Could you place O=C1C=C[C@@H](O)[C@@H]2[C@@H]3C(=O)N(Cc4ccccc4)C(=O)[C@@H]3CC[C@@H]12 in its proper category? Many thanks.
// result 0

// query Could you place O=C1C[C@@H](O)[C@@H](O)[C@@H]2[C@@H]3C(=O)N(Cc4ccccc4)C(=O)[C@@H]3CC[C@H]12 in its proper category? Many thanks.
// result 1

// query Could you place CO[C@@H]1COC(=O)[C@H](CCSC)NC(=O)CC=C[C@@H](C)COC(=O)[C@@H]2CCCN2C(=O)CC=C[C@H]1C in its proper category? Many thanks.
// result 1

// query Could you place C[C@@H]1CC[C@H]2C(=O)OC(CN3C(=O)c4ccccc4C3=O)CN2[C@H]1c1ccc(Br)cc1 (some centres undefined) in its proper category? Many thanks.
// result 2

// query Could you place CC(C)=CCCC(C)=CCON=C1C[C@@H](O)[C@@H](O)[C@@H]2[C@@H]3C(=O)N([C@@H](C)c4ccccc4)C(=O)[C@@H]3CC[C@@H]12 in its proper category? Many thanks.
// result 0

// query Could you place CCOC(=O)[C@H](CC(C)C)NC(=O)CCC1CC(OC(=O)NCc2ccc3c(c2)OCO3)CC2(CCCC(COC(=O)NCCOc3ccccc3)O2)O1 (some centres undefined) in its proper category? Many thanks.
// result 0

// query Could you place COc1cccc([C@H]2Oc3ccc(OC)cc3C(=NO[C@@H](C)c3cc(-c4c(C)cc(C)cc4C)no3)[C@@H]2O)c1 in its proper category? Many thanks.
// result 2

// query Could you place C[C@@H]1CC[C@H]2C(=O)O[C@@H](CN=[N+]=[N-])CN2[C@H]1c1ccc(Br)cc1 in its proper category? Many thanks.
// result 0

// query Could you place C#CCCCON=C1C[C@@H](O)[C@@H](O)[C@@H]2[C@@H]3C(=O)N(C[C@@H]4CCCO4)C(=O)[C@@H]3CC[C@@H]12 in its proper category? Many thanks.
// result 2

// query Could you place C=CC[C@@H]1C=CC(ON=C(C)C)[C@@H](CO)O1 (some centres undefined) in its proper category? Many thanks.
// result 0

// query Could you place Cc1ccc2[nH]c3nc(CCCn4ccnc4-c4ccccc4)nnc3c2c1 in its proper category? Many thanks.
// result 0

// query Could you place COC(=O)C1=C(C)N(Cc2ccccc2)C2=C3C(=O)OCC[C@@H]3[C@@](O)(C(=O)OC)C(=O)N2[C@@H]1c1ccccc1 in its proper category? Many thanks.
// result 1
